# protocol.summary: Plasma and tissue concentrations after a single oral dose
# Format: in vivo
# particulars: mouse, liver and spleen; mice, 24 h after single oral dose 100 μmol/kg (40 mg/kg); read-out: concentration in the liver and spleen at 24 h post dose
property.measured: concentration at 24 h

1. CC(C)Oc1cc(NC(=N)c2ccccn2)ccc1-c1ccc(-c2ccccc2)o1.CS(=O)(=O)O 0.6 to 0.7 µM

###

# protocol.summary: Plasma and tissue concentrations after a single oral dose
# Type: in vivo
# particulars: mouse, plasma; mice, 24 h after single oral dose 100 μmol/kg (40 mg/kg); read-out: plasma concentration at 24 h post dose
property.measured: concentration at 24 h (nM)

1) CC(C)Oc1cc(NC(=N)c2ccccn2)ccc1-c1ccc(-c2ccccc2)o1.CS(=O)(=O)O 140
